The following sequences are shown together with reported one-nucleolus phenotype percent effect values.
# Test system: MCF10A
# assayMethodText: one-nucleolus phenotype percent effect (relative to siNT 0% and siNOL11 100%); higher = more cells with one nucleolus (ribosome biogenesis inhibition)
# cond: 20 nM; 72 h
Answer format: numeric, % implied, no suffix.

* UAAUCCUUGCUACCUGGGUGAGA [hsa-miR-500a-5p] | 19.3
* CUGGGUUGGGCUGGGCUGGG [hsa-miR-4507] | -1.41
* AUCAUACAAGGACAAUUUCUUU [hsa-miR-539-3p] | -9.28

Let's switch to this sequence now.
Observed one-nucleolus phenotype percent effect on MCF10A for UGACUUCUACCUCUUCCAAAG [hsa-miR-6505-3p] , please. 46.6

Just for reference, the supplement of paper PMC10899765 is where these values come from.
